# Test system: MDA-MB-231
# method.description: Growth inhibition of human MDA-MB-231 cells at 10 uM after 72 hrs by luminescence assay
# Assay type: functional
# experimental.context: MDA-MB-231, 72 h
Label scheme for inhibition at 10 µM: lower than 50% is 0 (no), 50% and above is 1 (yes).

[
  {
    "chemical.smiles": "COC(=O)[C@@H]1Cc2c([nH]c3ccccc23)[C@H](c2ccc(Cl)cc2Cl)N1C(=O)CCl",
    "cat": "1 (yes)"
  },
  {
    "chemical.smiles": "CC(C)(C)N1CC(=O)N2[C@H](c3ccc(Cl)cc3Cl)c3[nH]c4ccccc4c3C[C@@H]2C1=O",
    "cat": "0 (no)"
  },
  {
    "chemical.smiles": "COC(=O)[C@H]1Cc2c([nH]c3ccccc23)[C@@H](c2ccc(Cl)c(Cl)c2)N1",
    "cat": "0 (no)"
  },
  {
    "chemical.smiles": "CCN1CC(=O)N2[C@@H](c3c(Cl)cccc3Cl)c3[nH]c4ccccc4c3C[C@H]2C1=O",
    "cat": "0 (no)"
  },
  {
    "chemical.smiles": "COC(=O)[C@@H]1Cc2c([nH]c3ccccc23)[C@H](c2ccc(Cl)c(Cl)c2)N1",
    "cat": "1 (yes)"
  },
  {
    "chemical.smiles": "CN1CC(=O)N2[C@@H](c3ccc(Cl)cc3Cl)c3[nH]c4ccccc4c3C[C@H]2C1=O",
    "cat": "1 (yes)"
  },
  {
    "chemical.smiles": "CC(C)(C)N1CC(=O)N2[C@@H](c3ccc(Cl)c(Cl)c3)c3[nH]c4ccccc4c3C[C@H]2C1=O",
    "cat": "1 (yes)"
  }
]

###

inhibition at 10 µM listing for selected molecules.
# Test system: MDA-MB-231
# method.description: Growth inhibition of human MDA-MB-231 cells at 10 uM after 72 hrs by luminescence assay
# Format: functional
# experimental.context: MDA-MB-231, 72 h

[
  {
    "chemical.smiles": "COC(=O)[C@H]1Cc2c([nH]c3ccccc23)[C@H](c2ccc(Cl)c(Cl)c2)N1C(=O)CCl",
    "inhibition at 10 µM": "50%"
  },
  {
    "chemical.smiles": "CCN1CC(=O)N2[C@H](c3ccc(Cl)cc3Cl)c3[nH]c4ccccc4c3C[C@@H]2C1=O",
    "inhibition at 10 µM": "30%"
  },
  {
    "chemical.smiles": "CC(C)(C)N1C(=O)[C@@H]2Cc3c([nH]c4ccccc34)[C@H](c3ccc(Cl)cc3Cl)N2C1=O",
    "inhibition at 10 µM": "22%"
  },
  {
    "chemical.smiles": "COC(=O)[C@@H]1Cc2c([nH]c3ccccc23)[C@@H](c2ccc(Cl)c(Cl)c2)N1",
    "inhibition at 10 µM": "48%"
  },
  {
    "chemical.smiles": "COC(=O)[C@H]1Cc2c([nH]c3ccccc23)[C@@H](c2c(Cl)cccc2Cl)N1C(=O)CCl",
    "inhibition at 10 µM": "15%"
  },
  {
    "chemical.smiles": "CC(C)(C)N1CC(=O)N2[C@H](c3ccc(Cl)c(Cl)c3)c3[nH]c4ccccc4c3C[C@@H]2C1=O",
    "inhibition at 10 µM": "36%"
  },
  {
    "chemical.smiles": "CCCCN1CC(=O)N2[C@H](c3ccc(Cl)cc3Cl)c3[nH]c4ccccc4c3C[C@@H]2C1=O",
    "inhibition at 10 µM": "45%"
  },
  {
    "chemical.smiles": "CCN1C(=O)[C@H]2Cc3c([nH]c4ccccc34)[C@@H](c3ccc(Cl)cc3Cl)N2C1=O",
    "inhibition at 10 µM": "39%"
  },
  {
    "chemical.smiles": "COC(=O)[C@@H]1Cc2c([nH]c3ccccc23)[C@H](c2c(Cl)cccc2Cl)N1",
    "inhibition at 10 µM": "52%"
  },
  {
    "chemical.smiles": "CCN1CC(=O)N2[C@H](c3ccc(Cl)c(Cl)c3)c3[nH]c4ccccc4c3C[C@@H]2C1=O",
    "inhibition at 10 µM": "30%"
  }
]

###

# system.tested: cGMP-inhibited 3',5'-cyclic phosphodiesterase 3B (Homo sapiens)
# Sequence (Q13370 whole entry): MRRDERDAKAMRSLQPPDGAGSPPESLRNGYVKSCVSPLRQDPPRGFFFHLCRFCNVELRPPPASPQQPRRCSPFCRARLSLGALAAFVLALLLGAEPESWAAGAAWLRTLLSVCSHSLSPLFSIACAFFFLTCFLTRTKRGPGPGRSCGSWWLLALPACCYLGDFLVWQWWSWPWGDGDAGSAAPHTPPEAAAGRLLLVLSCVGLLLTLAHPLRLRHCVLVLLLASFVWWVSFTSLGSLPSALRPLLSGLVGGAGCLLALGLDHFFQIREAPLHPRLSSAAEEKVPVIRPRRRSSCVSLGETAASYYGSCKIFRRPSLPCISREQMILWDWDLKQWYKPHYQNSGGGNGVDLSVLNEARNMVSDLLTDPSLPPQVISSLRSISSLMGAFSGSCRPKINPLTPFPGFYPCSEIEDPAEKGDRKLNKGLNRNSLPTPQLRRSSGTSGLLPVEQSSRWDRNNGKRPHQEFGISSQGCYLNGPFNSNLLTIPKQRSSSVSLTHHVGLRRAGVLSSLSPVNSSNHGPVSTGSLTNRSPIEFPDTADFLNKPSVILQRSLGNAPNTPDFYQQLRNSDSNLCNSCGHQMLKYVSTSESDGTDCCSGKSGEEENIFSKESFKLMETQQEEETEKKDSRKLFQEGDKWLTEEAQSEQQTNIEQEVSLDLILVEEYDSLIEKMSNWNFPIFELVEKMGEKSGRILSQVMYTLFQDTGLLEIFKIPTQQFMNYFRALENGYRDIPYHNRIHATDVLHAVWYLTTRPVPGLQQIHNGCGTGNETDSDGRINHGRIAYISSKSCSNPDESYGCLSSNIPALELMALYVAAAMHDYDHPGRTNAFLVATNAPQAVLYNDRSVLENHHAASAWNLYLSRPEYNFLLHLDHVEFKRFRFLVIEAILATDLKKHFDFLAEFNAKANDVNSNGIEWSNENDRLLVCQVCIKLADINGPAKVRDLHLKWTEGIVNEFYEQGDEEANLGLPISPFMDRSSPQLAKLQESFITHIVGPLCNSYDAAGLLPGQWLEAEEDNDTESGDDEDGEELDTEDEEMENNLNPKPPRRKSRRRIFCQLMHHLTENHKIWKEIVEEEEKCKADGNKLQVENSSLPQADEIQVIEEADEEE
# method.description: Inhibition of human recombinant PDE3B-mediated hydrolysis of cGMP after 30 mins by fluorescence polarization assay
IC50 listing for selected compounds.

[
  {
    "chemical.smiles": "CCN1C(=O)[C@@H]2Cc3c([nH]c4ccccc34)[C@@H](c3ccc(Cl)cc3Cl)N2C1=O",
    "IC50": "> 50 µM"
  },
  {
    "chemical.smiles": "CN1CC(=O)N2[C@H](c3ccc4c(c3)OCO4)c3[nH]c4ccccc4c3C[C@@H]2C1=O",
    "IC50": "> 50 µM"
  },
  {
    "chemical.smiles": "CCN1C(=O)[C@H]2Cc3c([nH]c4ccccc34)[C@@H](c3ccc(Cl)cc3Cl)N2C1=O",
    "IC50": "> 50 µM"
  },
  {
    "chemical.smiles": "CCN1CC(=O)N2[C@H](c3ccc(Cl)cc3Cl)c3[nH]c4ccccc4c3C[C@@H]2C1=O",
    "IC50": "> 50 µM"
  }
]

###

# system.tested: cGMP-specific 3',5'-cyclic phosphodiesterase (Homo sapiens, UniProt O76074)
# method.description: Inhibition of human recombinant PDE5 at 10 uM after 30 mins by fluorescence polarization assay
inhibition listing for selected compounds.
endpoint.name: inhibition (%)

[
  {
    "chemical.smiles": "CC(C)(C)N1CC(=O)N2[C@H](c3c(Cl)cccc3Cl)c3[nH]c4ccccc4c3C[C@@H]2C1=O",
    "endpoint.name": "inhibition",
    "readout.number": 21
  },
  {
    "chemical.smiles": "COC(=O)[C@H]1Cc2c([nH]c3ccccc23)[C@@H](c2ccc(Cl)c(Cl)c2)N1C(=O)CCl",
    "endpoint.name": "inhibition",
    "readout.number": 40
  },
  {
    "chemical.smiles": "CC(C)(C)N1C(=O)[C@@H]2Cc3c([nH]c4ccccc34)[C@H](c3ccc(Cl)cc3Cl)N2C1=O",
    "endpoint.name": "inhibition",
    "readout.number": 75
  },
  {
    "chemical.smiles": "COC(=O)[C@H]1Cc2c([nH]c3ccccc23)[C@H](c2ccc(Cl)c(Cl)c2)N1",
    "endpoint.name": "inhibition",
    "readout.number": 50
  },
  {
    "chemical.smiles": "CC(C)(C)N1CC(=O)N2[C@H](c3ccc(Cl)cc3Cl)c3[nH]c4ccccc4c3C[C@@H]2C1=O",
    "endpoint.name": "inhibition",
    "readout.number": 94
  },
  {
    "chemical.smiles": "CCCCN1CC(=O)N2[C@@H](c3ccc(Cl)cc3Cl)c3[nH]c4ccccc4c3C[C@@H]2C1=O",
    "endpoint.name": "inhibition",
    "readout.number": 69
  },
  {
    "chemical.smiles": "COC(=O)[C@H]1Cc2c([nH]c3ccccc23)[C@@H](c2ccc(Cl)c(Cl)c2)N1",
    "endpoint.name": "inhibition",
    "readout.number": 78
  },
  {
    "chemical.smiles": "COC(=O)[C@H]1Cc2c([nH]c3ccccc23)[C@@H](c2c(Cl)cccc2Cl)N1C(=O)CCl",
    "endpoint.name": "inhibition",
    "readout.number": 27
  },
  {
    "chemical.smiles": "CC(C)(C)N1C(=O)[C@@H]2Cc3c([nH]c4ccccc34)[C@H](c3c(Cl)cccc3Cl)N2C1=O",
    "endpoint.name": "inhibition",
    "readout.number": 25
  },
  {
    "chemical.smiles": "CCN1C(=O)[C@H]2Cc3c([nH]c4ccccc34)[C@@H](c3ccc(Cl)c(Cl)c3)N2C1=O",
    "endpoint.name": "inhibition",
    "readout.number": 95
  },
  {
    "chemical.smiles": "CC(C)(C)N1CC(=O)N2[C@@H](c3ccc(Cl)c(Cl)c3)c3[nH]c4ccccc4c3C[C@H]2C1=O",
    "endpoint.name": "inhibition",
    "readout.number": 35
  },
  {
    "chemical.smiles": "CCN1C(=O)[C@@H]2Cc3c([nH]c4ccccc34)[C@H](c3ccc(Cl)cc3Cl)N2C1=O",
    "endpoint.name": "inhibition",
    "readout.number": 85
  },
  {
    "chemical.smiles": "CN1CC(=O)N2[C@@H](c3ccc(Cl)cc3Cl)c3[nH]c4ccccc4c3C[C@@H]2C1=O",
    "endpoint.name": "inhibition",
    "readout.number": 90
  },
  {
    "chemical.smiles": "COC(=O)[C@H]1Cc2c([nH]c3ccccc23)[C@H](c2ccc(Cl)cc2Cl)N1",
    "endpoint.name": "inhibition",
    "readout.number": 40
  },
  {
    "chemical.smiles": "COC(=O)[C@@H]1Cc2c([nH]c3ccccc23)[C@H](c2c(Cl)cccc2Cl)N1C(=O)CCl",
    "endpoint.name": "inhibition",
    "readout.number": 67
  },
  {
    "chemical.smiles": "CCN1CC(=O)N2[C@@H](c3ccc(Cl)cc3Cl)c3[nH]c4ccccc4c3C[C@H]2C1=O",
    "endpoint.name": "inhibition",
    "readout.number": 85
  },
  {
    "chemical.smiles": "CCN1CC(=O)N2[C@@H](c3ccc(Cl)cc3Cl)c3[nH]c4ccccc4c3C[C@@H]2C1=O",
    "endpoint.name": "inhibition",
    "readout.number": 90
  },
  {
    "chemical.smiles": "COC(=O)[C@@H]1Cc2c([nH]c3ccccc23)[C@@H](c2ccc(Cl)c(Cl)c2)N1C(=O)CCl",
    "endpoint.name": "inhibition",
    "readout.number": 40
  },
  {
    "chemical.smiles": "COC(=O)[C@@H]1Cc2c([nH]c3ccccc23)[C@H](c2ccc(Cl)c(Cl)c2)N1C(=O)CCl",
    "endpoint.name": "inhibition",
    "readout.number": 20
  },
  {
    "chemical.smiles": "CCN1C(=O)[C@@H]2Cc3c([nH]c4ccccc34)[C@@H](c3ccc(Cl)cc3Cl)N2C1=O",
    "endpoint.name": "inhibition",
    "readout.number": 95
  },
  {
    "chemical.smiles": "COC(=O)[C@H]1Cc2c([nH]c3ccccc23)[C@@H](c2ccc(Cl)cc2Cl)N1C(=O)CCl",
    "endpoint.name": "inhibition",
    "readout.number": 66
  },
  {
    "chemical.smiles": "CCCCN1CC(=O)N2[C@@H](c3ccc(Cl)cc3Cl)c3[nH]c4ccccc4c3C[C@H]2C1=O",
    "endpoint.name": "inhibition",
    "readout.number": 78
  },
  {
    "chemical.smiles": "COC(=O)[C@@H]1Cc2c([nH]c3ccccc23)[C@@H](c2ccc(Cl)c(Cl)c2)N1",
    "endpoint.name": "inhibition",
    "readout.number": 24
  },
  {
    "chemical.smiles": "CC(C)(C)N1C(=O)[C@H]2Cc3c([nH]c4ccccc34)[C@H](c3ccc(Cl)c(Cl)c3)N2C1=O",
    "endpoint.name": "inhibition",
    "readout.number": 65
  },
  {
    "chemical.smiles": "COC(=O)[C@H]1Cc2c([nH]c3ccccc23)[C@@H](c2c(Cl)cccc2Cl)N1",
    "endpoint.name": "inhibition",
    "readout.number": 25
  },
  {
    "chemical.smiles": "CC(C)(C)N1C(=O)[C@H]2Cc3c([nH]c4ccccc34)[C@@H](c3ccc(Cl)c(Cl)c3)N2C1=O",
    "endpoint.name": "inhibition",
    "readout.number": 82
  },
  {
    "chemical.smiles": "CCN1CC(=O)N2[C@H](c3ccc(Cl)c(Cl)c3)c3[nH]c4ccccc4c3C[C@@H]2C1=O",
    "endpoint.name": "inhibition",
    "readout.number": 80
  },
  {
    "chemical.smiles": "CCN1CC(=O)N2[C@H](c3ccc(Cl)c(Cl)c3)c3[nH]c4ccccc4c3C[C@H]2C1=O",
    "endpoint.name": "inhibition",
    "readout.number": 78
  },
  {
    "chemical.smiles": "CC(C)(C)N1CC(=O)N2[C@@H](c3ccc(Cl)c(Cl)c3)c3[nH]c4ccccc4c3C[C@@H]2C1=O",
    "endpoint.name": "inhibition",
    "readout.number": 30
  },
  {
    "chemical.smiles": "CCN1C(=O)[C@H]2Cc3c([nH]c4ccccc34)[C@H](c3ccc(Cl)cc3Cl)N2C1=O",
    "endpoint.name": "inhibition",
    "readout.number": 90
  },
  {
    "chemical.smiles": "CCN1CC(=O)N2[C@@H](c3c(Cl)cccc3Cl)c3[nH]c4ccccc4c3C[C@H]2C1=O",
    "endpoint.name": "inhibition",
    "readout.number": 28
  }
]
